system: Human recombinant protein CD73 (Homo sapiens (Human))
Sequence (P21589 27-574): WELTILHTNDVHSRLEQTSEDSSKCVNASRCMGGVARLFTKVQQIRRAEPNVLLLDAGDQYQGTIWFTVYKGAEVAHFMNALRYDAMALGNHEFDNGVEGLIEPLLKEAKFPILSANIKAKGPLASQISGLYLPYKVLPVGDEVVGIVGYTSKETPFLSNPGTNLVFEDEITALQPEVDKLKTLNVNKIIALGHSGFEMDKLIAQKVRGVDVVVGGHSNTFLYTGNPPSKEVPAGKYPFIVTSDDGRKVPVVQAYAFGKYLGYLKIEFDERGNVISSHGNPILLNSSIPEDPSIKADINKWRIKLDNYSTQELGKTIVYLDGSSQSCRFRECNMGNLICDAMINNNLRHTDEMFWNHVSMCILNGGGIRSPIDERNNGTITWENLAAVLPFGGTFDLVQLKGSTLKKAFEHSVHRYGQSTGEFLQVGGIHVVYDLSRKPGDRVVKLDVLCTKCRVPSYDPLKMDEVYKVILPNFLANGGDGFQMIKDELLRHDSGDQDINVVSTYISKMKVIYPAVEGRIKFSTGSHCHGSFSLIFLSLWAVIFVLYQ
experiment-notes: CD73 enzyme activity in vitro (Malachite Green, AMP substrate)
Type: biochemical
test-settings: recombinant CD73, 100 μM AMP substrate solution, absorbance at 620 nm
observable: log10(IC50) (log10 of the value in nM)

| compound | system | log10(IC50) |
| --- | --- | --- |
| CC(C)ONc1nc(Cl)nc2c1cnn2[C@@H]1O[C@H](COP(=O)(O)CP(=O)(O)O)[C@@H](O)[C@H]1O [Compound 27] | Human recombinant protein CD73 (Homo sapiens (Human)) | 0.23 |
| CONc1cc(Cl)nc2c1cnn2[C@@H]1O[C@H](COP(=O)(O)CP(=O)(O)O)[C@@H](O)[C@H]1O [Compound 24] | Human recombinant protein CD73 (Homo sapiens (Human)) | 0.72 |
| O=P(O)(O)CP(=O)(O)OC[C@H]1O[C@@H](n2ncc3c(N4C[C@H]5CCC[C@H]5C4)nc(Cl)nc32)[C@H](O)[C@@]1(O)C(F)F [Compound 33] | Human recombinant protein CD73 (Homo sapiens (Human)) | 0.08 |
| CC(C)ONc1cc(Cl)nc2c1cnn2[C@@H]1O[C@H](COP(=O)(O)CP(=O)(O)O)[C@@H](O)[C@H]1O [Compound 26] | Human recombinant protein CD73 (Homo sapiens (Human)) | 0.46 |
| CONc1nc(Cl)nc2c1cnn2[C@@H]1O[C@H](COP(=O)(O)CP(=O)(O)O)[C@@H](O)[C@H]1O [Compound 18] | Human recombinant protein CD73 (Homo sapiens (Human)) | 0.26 |
| O=P(O)(O)CP(=O)(O)OC[C@H]1O[C@@H](n2ncc3c(N4C[C@H]5CCC[C@H]5C4)nc(Cl)nc32)[C@H](O)[C@@]1(O)CO [Compound 28] | Human recombinant protein CD73 (Homo sapiens (Human)) | -0.15 |
| C[C@H](Nc1cc(Cl)nc2c1cnn2[C@@H]1O[C@H](COP(=O)(O)CP(=O)(O)O)[C@](O)(CO)[C@H]1O)c1ccccc1F [Compound 12] | Human recombinant protein CD73 (Homo sapiens (Human)) | -0.40 |
| O=P(O)(O)CP(=O)(O)OC[C@H]1O[C@H](n2ncc3c(N4C[C@H]5CCC[C@H]5C4)nc(Cl)nc32)[C@H](O)[C@@]1(O)CO [Compound 31] | Human recombinant protein CD73 (Homo sapiens (Human)) | -0.15 |
| O=P(O)(O)CP(=O)(O)OC[C@H]1O[C@@H](n2ncc3c(NOC4CCCC4)nc(Cl)nc32)[C@H](O)[C@@H]1O [Compound 25] | Human recombinant protein CD73 (Homo sapiens (Human)) | -0.40 |
| O=P(O)(O)CP(=O)(O)OC[C@H]1O[C@@H](n2ncc3c(N4C[C@H]5CCC[C@H]5C4)cc(Cl)nc32)[C@H](O)[C@@]1(O)C(F)F [Compound 32] | Human recombinant protein CD73 (Homo sapiens (Human)) | -0.05 |
| C#C[C@@]1(O)[C@@H](COP(=O)(O)CP(=O)(O)O)O[C@@H](n2ncc3c(N4C[C@H]5CCC[C@H]5C4)nc(Cl)nc32)[C@@H]1O [Compound 40] | Human recombinant protein CD73 (Homo sapiens (Human)) | -1.22 |
| C[C@@]1(O)[C@@H](COP(=O)(O)CP(=O)(O)O)O[C@@H](n2ncc3c(N4C[C@H]5CCC[C@H]5C4)nc(Cl)nc32)[C@@H]1O [Compound 38] | Human recombinant protein CD73 (Homo sapiens (Human)) | -0.52 |
| O=P(O)(O)CP(=O)(O)OC[C@H]1O[C@@H](n2ncc3c(NOCc4ccccc4)nc(Cl)nc32)[C@H](O)[C@@H]1O [Compound 30] | Human recombinant protein CD73 (Homo sapiens (Human)) | -0.70 |
| O=P(O)(O)CP(=O)(O)OC[C@H]1O[C@@H](n2ncc3c(N4C[C@H]5CCC[C@H]5C4)cc(Cl)nc32)[C@H](O)[C@@]1(O)CO [Compound 29] | Human recombinant protein CD73 (Homo sapiens (Human)) | 0.41 |
